Listing of recorded TGI by entry.
Tested on: SK-OV-3 ovarian
Experiment: NCI tumour cell line growth inhibition, 48 h

# annotated cases, reported TGI shown
O=c1c2cc(I)ccc2nc(-c2cccs2)n1/N=C/c1ccccc1 | > 100 µM
[N-]=[N+]=CC(=O)CCC(=O)N(c1ccccc1)c1ccccc1 | > 10 µM

Provide only the value of recorded TGI for "CN(C(=O)c1ccco1)C(=S)N1CCN(c2ccccn2)CC1"
> 100 µM

----------
Test system: RPMI-8226 leukemia
Experiment: NCI tumour cell line growth inhibition, 48 h
Listing of recorded TGI by entry.

CNC(=O)NS(=O)(=O)c1ccc(C)cc1 | > 100 µM

Provide only the value of recorded TGI for "CCCCCCCCOC(=O)c1cc([N+](=O)[O-])c(Sc2ncnc3nc[nH]c23)c([N+](=O)[O-])c1"
8.54 µM

Provide only the value of recorded TGI for "Nc1ncnc2c1ccn2[C@@H]1O[C@H]([C@H](O)c2ccc(Cl)c(F)c2)[C@@H](O)[C@H]1O"
> 100 µM

Provide only the value of recorded TGI for "COC(=O)C1=C(CCC[C@H](C)O[Si](C)(C)C(C)(C)C)NC(=O)N2[C@@H](CCO)CC[C@H]12"
53.6 µM

Provide only the value of recorded TGI for Cc1cc(Cl)ccc1NC(=O)C(=O)C(C(=O)c1ccccc1)C1OC(=O)c2ccccc21 (configuration not stated)
> 100 µM

Provide only the value of recorded TGI for C=CC1(C)OC2(CCN(C(=O)OCC)CC2)OC1C (configuration not stated)
> 100 µM

Provide only the value of recorded TGI for CSCCC(C(=O)O)N(CC1(O)OCC(O)C(O)C1O)N=O (configuration not stated)
> 100 µM

Provide only the value of recorded TGI for COC(=O)C1C=CCON2CCc3c(n(S(=O)(=O)c4ccccc4)c4ccccc34)C12 (configuration not stated)
> 36 µM

Provide only the value of recorded TGI for "N#Cc1c(N2CCN(c3ccc([N+](=O)[O-])cc3)CC2)[n+](=O)c2ccccc2n1[O-]"
> 100 µM

Provide only the value of recorded TGI for "CN(C)c1ccc(N=C2C=CC(=O)c3ccccc32)cc1"
19.7 µM

Provide only the value of recorded TGI for Cc1ccccc1C1CC(c2ccccc2)=NO1 (configuration not stated)
> 100 µM

Provide only the value of recorded TGI for "CC[C@H](C)[C@H](NC(=O)[C@@]1(O)[C@H](O)[C@]2(CC)C=CCN3CC[C@@]4(c5cc(Br)c(OC)cc5N(C)[C@@H]14)[C@@H]32)C(=O)OC"
34.9 µM

Provide only the value of recorded TGI for "CCCC(=O)NC(Nc1ccc(S(=O)(=O)Nc2ccc(OC)nn2)cc1)(C(F)(F)F)C(F)(F)F"
> 100 µM

Provide only the value of recorded TGI for "Cc1cccc2c1c(=O)c1c(O)cc(O)cc1n2C"
> 100 µM

Provide only the value of recorded TGI for "Cc1cc2nc(N3C(=O)/C(=C/c4ccc(N(C)C)cc4)N=C3c3ccccc3)sc2cc1C"
> 100 µM

Provide only the value of recorded TGI for "CCOC(=O)C(=O)Nc1ccccc1C(C)C"
> 100 µM

Provide only the value of recorded TGI for Cc1ccc(NC(=O)OCC(COc2ccc(Cl)cc2Cl)OC(=O)Nc2ccc(C)cc2)cc1 (configuration not stated)
> 100 µM

----------
Tested on: PC-3 prostate
Assay: NCI tumour cell line growth inhibition, 48 h
Listing of recorded log10(TGI) by entry.
Values reflect log10 of reported TGI (µM).

# annotated cases, reported log10(TGI) shown
C#Cc1cccc(NC(=O)c2ccc(NC(=O)CCl)cc2)c1 | 1.78
O=C1C=CC2(C=C1)C[C@H](NC(=O)OCc1ccccc1)C(=O)O2 | 1.48
O=[N+]([O-])c1cc2c([N+](=O)[O-])cccc2o1 | 1.56
CCCCCCCCOC(=O)c1cc([N+](=O)[O-])c(Sc2ncnc3nc[nH]c23)c([N+](=O)[O-])c1 | 1.14
CN1CCN(Cc2ccc(NC(=O)c3cncc(C#Cc4cnc(N)c5cnccc45)c3)cc2C(F)(F)F)CC1 | 0.95

Provide only the value of recorded log10(TGI) for "FC(F)(F)c1cc(Nc2ccc3cc(OCCCN4CCOCC4)ccc3n2)ccc1Cl"
0.43

----------
System: NCI-H23 lung
Test: NCI tumour cell line growth inhibition, 48 h
measure-name: TGI (µM)
Answer with a number only, understood to be in µM.

# annotated cases, reported TGI shown
COc1cc2c(cc1C)NC(=O)/C2=C\c1c[nH]c2ccccc12 | 74.6
Fc1ccc(Nc2nc3ccccc3c3occc23)cc1 | 4.86
O=c1cc(-c2ccccc2)[nH]c2cc(Cl)ccc12 | 4.35

Provide only the value of recorded TGI for "CCC[CH2][Pb]([Cl])([CH2]CCC)[CH2]CCC"
0.116

Provide only the value of recorded TGI for "COC(=O)[C@]12CC[C@@H](C)[C@H](C)[C@@H]1C1=CC[C@@H]3[C@@]4(C)C(C=O)=C[C@@](C)(COC(=O)/C=C/c5ccccc5)[C@@H]4[C@H](O)C[C@@]3(C)[C@]1(C)CC2"
15.1

Provide only the value of recorded TGI for CCOC1CC2OC(=O)C1C=C2C(=O)OC (configuration not stated)
44.2

----------
Tested on: UACC-62 melanoma
Experiment: NCI tumour cell line growth inhibition, 48 h
Listing of recorded TGI by entry.

CCc1cccc(C)c1NC(=S)NC(=O)c1ccccc1C(=O)NC(=S)Nc1c(C)cccc1CC | > 100 µM

Provide only the value of recorded TGI for "COc1cc(C=O)cc(O)c1O"
> 100 µM

Provide only the value of recorded TGI for "N#Cc1c(N2CCN(c3ccc([N+](=O)[O-])cc3)CC2)[n+](=O)c2ccccc2n1[O-]"
> 100 µM

----------
Tested on: 786-0 renal
Test: NCI tumour cell line growth inhibition, 48 h
measure-name: TGI

CCOC(=O)C(C(O)c1ccc([N+](=O)[O-])cc1)P(=O)(OCC)OCC (stereo not drawn) | > 100 µM

Provide only the value of recorded TGI for "O=C1O/C(=C\c2ccc(O)cc2)C(c2ccc(O)c(Cl)c2)=C1Cl"
> 100 µM

Provide only the value of recorded TGI for "CC1(C)N=C(N)N=C(N)N1c1cccc(Br)c1"
> 100 µM

----------
Test system: HCC-2998 colon
Experiment: NCI tumour cell line growth inhibition, 48 h
measure-name: TGI

O=c1c2cc(I)ccc2nc(-c2cccs2)n1/N=C/c1ccccc1 | > 100 µM
CCOC(=O)C1(Br)S(=O)(=O)OCCOS1(=O)=O | > 100 µM
CC1CN=C(Nc2ccc(F)c(Cl)c2)S1 (stereo unspecified) | > 100 µM
Cc1ccccc1C1CC(c2ccccc2)=NO1 (stereo unspecified) | > 100 µM

Provide only the value of recorded TGI for "C/C(=N/Nc1nc(C)cc(=O)[nH]1)C(=O)O"
> 100 µM

Provide only the value of recorded TGI for "COc1cccc(/C=C\c2ccc(O)cc2)c1"
> 62.8 µM

----------
Tested on: HOP-62 NSCLC
Assay: NCI tumour cell line growth inhibition, 48 h
measure-name: TGI

# annotated cases, reported TGI shown
NC(=O)C(=CNC(=S)Nc1cccc(C(F)(F)F)c1)C(N)=O | > 100 µM
COC(=O)C1(C)NCCc2c1[nH]c1ccccc21 (stereo unspecified) | > 100 µM
O=c1c2cc(I)ccc2nc(-c2cccs2)n1/N=C/c1ccccc1 | > 100 µM
COC1/C=C/C(C)C(C(C)C(OC)C(C)CCC(=O)C(C)C(CC(=O)O)OC)OC(=O)/C=C/C=C(\C)CC(OC)CC2=CC(=O)O[C@H](C2)C(C)C(OC)CC(OC)/C=C/C(C)C(OC)C1 (stereo partly specified) | > 4.35 µM

Provide only the value of recorded TGI for "Clc1c2ccccc2nc2c1[nH]c1ccccc12"
> 100 µM

Provide only the value of recorded TGI for "Cc1ccc2nc(NC(=O)/C(=N\NC(=S)NN)C3C(=O)NC(=S)NC3=O)sc2c1"
> 100 µM

----------
Listing of recorded TGI by entry.
Tested on: U251 CNS
Test: NCI tumour cell line growth inhibition, 48 h

# annotated cases, reported TGI shown
COCc1c(-c2ccc(NC(=O)Nc3cc(C(F)(F)F)ccc3F)c(F)c2)c2c(N)ncnn2c1CN1CCOCC1 | > 10 µM
COc1ccc(OC)c(/C=C/c2nc(SCc3ccccc3)n(-c3ccc(Cl)cc3)n2)c1 | > 100 µM
CCOC(=O)CNc1nnnn1C1OC(CO)C(O)C1O (stereo unspecified) | > 100 µM
CCCCCCCCCCCCCB(O)O | > 100 µM
c1ccc2c(NCCCCCCNc3cccc4ccccc34)cccc2c1 | > 100 µM

Provide only the value of recorded TGI for "O=c1oc2ccc3ccccc3c2cc1-c1nc2ccc([N+](=O)[O-])cc2o1"
> 100 µM

----------
Tested on: HCC-2998 colon
Experiment: NCI tumour cell line growth inhibition, 48 h
measure-name: TGI

Provide only the value of recorded TGI for "O=c1ccnc2ccc3n[nH][nH]c3c12"
> 100 µM

Provide only the value of recorded TGI for O=C1CC2SC(COCc3ccccc3)(CCN2Cc2ccccc2)C1 (stereo not drawn)
> 100 µM

Provide only the value of recorded TGI for Cc1ccc(S(=O)(=O)N2CCc3ccc(O)c4c3C2Cc2ccc3c(c2-4)OCO3)cc1 (stereo not drawn)
5.24 µM

Provide only the value of recorded TGI for CCOC(=O)c1cc(C2CCN(Cc3ccccc3)C2=S)c(C(=O)C=[N+]=[N-])[nH]1 (stereo not drawn)
> 100 µM

Provide only the value of recorded TGI for "COc1ccc(-c2cc(=O)c3c(O)cc(O)cc3o2)c(OC)c1OC"
> 100 µM

Provide only the value of recorded TGI for "COc1c2c(cc3c1C(=O)Cc1ccc4c(c1CN(C)CC3)OCO4)OCO2"
> 100 µM

Provide only the value of recorded TGI for "CCCCc1c2c(c(C)c3c1C(=O)OC3)Oc1ccccc1O2"
3.22 µM
